Measurement notes: stimulators of nuclear beta-catenin in C2C12, primary screen, imaging, WNT3A-conditioned medium, mouse C2C12, NPC library (AID 1117326); also: reference of the scale not given here
Experimental parameters: stimulation, at 2 µM, stronger effect = higher value
Measured attribute: nuclear beta-catenin stimulation (%)
Only the number, expressed in %, is required.

// sample "CC1(C)OC[C@@H](COC(=O)CCc2ccc(OC[C@@H](O)CNCCNC(=O)N3CCOCC3)cc2)O1" , its nuclear beta-catenin stimulation was 1.1

// sample "CCN(CC)CCNC(=O)c1ccc(N)cc1" , its nuclear beta-catenin stimulation was 2.4

// sample "O=C(O)Cc1ccccc1Oc1ccc(Cl)cc1Cl" , its nuclear beta-catenin stimulation was 0.7

// sample CCCNCC(O)COc1ccccc1C(=O)CCc1ccccc1 (centres undefined) , its nuclear beta-catenin stimulation was 0.1

// sample "O=C1C(c2[nH]c3ccc(S(=O)(=O)O)cc3c2O)=Nc2ccc(S(=O)(=O)O)cc21" , its nuclear beta-catenin stimulation was -0.3

// sample "O=C(CCN1CCN(CCO)CC1)N1c2ccccc2Sc2ccc(C(F)(F)F)cc21" , its nuclear beta-catenin stimulation was 1.4

// sample "COc1ccc2cc(CCC(C)=O)ccc2c1" , its nuclear beta-catenin stimulation was 3.7

// sample CC1=C(CC(=O)O)c2cc(F)ccc2/C1=C\c1ccc(S(C)=O)cc1 (centres undefined) , its nuclear beta-catenin stimulation was 0.2

// sample "Cc1nc([N+](=O)[O-])cn1-c1ccc([N+](=O)[O-])cc1" , its nuclear beta-catenin stimulation was -2.2

// sample "CCOc1c(N2CCOCC2)cnn(C)c1=O" , its nuclear beta-catenin stimulation was 4.4

// sample "CC(C)=CCCC(C)=CCCC(C)=CCCC(C)=CCC1=C(C)C(=O)c2ccccc2C1=O" , its nuclear beta-catenin stimulation was 0

// sample "CC(C)C(=O)Nc1ccc([N+](=O)[O-])c(C(F)(F)F)c1" , its nuclear beta-catenin stimulation was -0.2

// sample "COC1=C(OC)C(=O)C(CC=C(C)CCC=C(C)CCC=C(C)CCC=C(C)CCC=C(C)CCC=C(C)CCC=C(C)CCC=C(C)CCC=C(C)CCC=C(C)C)=C(C)C1=O" , its nuclear beta-catenin stimulation was 1.2

// sample "CC(C)=CCC1C(=O)N(c2ccccc2)N(c2ccccc2)C1=O" , its nuclear beta-catenin stimulation was 0.3

// sample "C[C@]12CCC(=O)C=C1CC[C@@H]1[C@@H]2C(=O)C[C@@]2(C)[C@H]1CC[C@]2(O)C(=O)CO" , its nuclear beta-catenin stimulation was 1.3

// sample "CC1=C(C(=O)O)N2C(=O)[C@@H](NC(=O)[C@H](N)c3ccccc3)[C@H]2SC1" , its nuclear beta-catenin stimulation was 0.2

// sample "Cc1ccc(CCn2c3c(c4cc(Cl)ccc42)CN(C)CC3)cn1" , its nuclear beta-catenin stimulation was 0.7

// sample CC(=O)SCC(CC(=O)c1ccc(C)cc1)C(=O)O (centres undefined) , its nuclear beta-catenin stimulation was -0.4

// sample "Cc1ncc(CO)c(C=O)c1O" , its nuclear beta-catenin stimulation was 0.6

// sample "CCN(CC)C(=S)SSC(=S)N(CC)CC" , its nuclear beta-catenin stimulation was 2.3

// sample "CC(C)C[C@@H]1[C@H](c2ccccc2)OC(=O)N1CCCN1CCCCCC1" , its nuclear beta-catenin stimulation was 1.6

// sample "Cc1cc(O)cc2c1O[C@](C)(CCC[C@H](C)CCC[C@H](C)CCCC(C)C)CC2" , its nuclear beta-catenin stimulation was -2

// sample "CCCCCCCCCCCCSCCOCCO" , its nuclear beta-catenin stimulation was 2

// sample "CN(C)CCc1c[nH]c2ccc(C[C@H]3COC(=O)N3)cc12" , its nuclear beta-catenin stimulation was 1.8

// sample "CN(C)CCCN1c2ccccc2Sc2ccc(Cl)cc21" , its nuclear beta-catenin stimulation was 0.9

// sample "CCCCCCCCCCCCCCCC(=O)OC(C)C" , its nuclear beta-catenin stimulation was 1.3

// sample C[N+]1(CC2COC(c3ccccc3)(c3ccccc3)O2)CCCCC1 (centres undefined) , its nuclear beta-catenin stimulation was -0.6

// sample "CCOC(=O)c1cccc(N)c1" , its nuclear beta-catenin stimulation was -1.1

// sample "CCOC(=O)OCC/C(SC(=O)OCC)=C(\C)N(C=O)Cc1cnc(C)nc1N" , its nuclear beta-catenin stimulation was 0.3
